Target: Human full-length SHP2 recombinant protein (Homo sapiens (Human), UniProt Q06124)
Sequence (Q06124 whole entry): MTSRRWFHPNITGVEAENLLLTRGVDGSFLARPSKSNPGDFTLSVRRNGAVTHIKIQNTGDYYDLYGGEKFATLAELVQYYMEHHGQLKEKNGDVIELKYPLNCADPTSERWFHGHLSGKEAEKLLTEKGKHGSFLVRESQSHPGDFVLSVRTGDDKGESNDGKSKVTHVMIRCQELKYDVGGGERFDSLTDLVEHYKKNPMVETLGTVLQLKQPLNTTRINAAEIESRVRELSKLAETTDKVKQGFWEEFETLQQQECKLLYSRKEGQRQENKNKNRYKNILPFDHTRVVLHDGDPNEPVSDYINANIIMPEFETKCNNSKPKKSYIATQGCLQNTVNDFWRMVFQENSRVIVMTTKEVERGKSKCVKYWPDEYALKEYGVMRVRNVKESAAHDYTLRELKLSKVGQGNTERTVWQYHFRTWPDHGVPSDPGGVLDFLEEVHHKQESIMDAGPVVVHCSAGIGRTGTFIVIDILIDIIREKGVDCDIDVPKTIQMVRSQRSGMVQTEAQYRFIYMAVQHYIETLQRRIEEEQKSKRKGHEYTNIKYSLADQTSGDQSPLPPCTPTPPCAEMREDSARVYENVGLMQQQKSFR
Experiment: Assay of full-length SHP2 phosphatase activity
Settings: DiFMUP substrate, with activating peptide
Reported log10 of IC50 is given for each of the following molecules.
Heads up, the numbers here are log10 of IC50 in nM units.

Worked examples, 5 molecules total:
COC(=O)C#Cc1ccc2c(c1)[C@@H](N)C1(CCN(c3cnc(Sc4ccnc(N)c4Cl)cn3)CC1)C2; 0.00
C#Cc1ccc2c(c1)[C@@H](N)C1(CCN(c3cc(=O)n(-c4ccc(C#N)cc4Cl)c(C)n3)CC1)C2; 0.85
Cc1nc(Sc2ccnc(N)c2Cl)c(N)nc1N1CCC2(CC1)Cc1ccc(C#CC(N)=O)cc1[C@H]2N; 0.30
CNC(=O)C#Cc1ccc2c(c1)[C@@H](N)C1(CCN(c3cnc(Sc4ccnc(N)c4Cl)c(N)n3)CC1)C2; 0.00
C#Cc1ccc2c(c1)[C@@H](N)C1(CCN(c3cc(=O)n(-c4cccc(OC)c4)c(C)n3)CC1)C2; 0.78

stdin: Form field - read-out: log10 of IC50; system: Human full-length SHP2 recombinant protein (Homo sapiens (Human), UniProt Q06124); submitted item: "C#Cc1ccc2c(c1)CC1(CCN(c3ncc(-c4cn(C)c5ncccc45)c4nccn34)CC1)[C@@H]2N"
stdout: 2.62

stdin: Entry "C#Cc1cc(F)c2c(c1)[C@@H](N)C1(CCN(c3nc(C)n(-c4cccc(Cl)c4Cl)c(=O)c3F)CC1)C2" , system Human full-length SHP2 recombinant protein (Homo sapiens (Human), UniProt Q06124): what log10 of IC50 was measured?
stdout: 1.40

stdin: Value wanted: log10 of IC50 (Human full-length SHP2 recombinant protein (Homo sapiens (Human), UniProt Q06124)) of entry C#Cc1ccc2c(c1)[C@@H](N)C1(CCN(c3cc(=O)n(-c4ccc(F)c(Cl)c4Cl)c(C)n3)CC1)C2 [Compound 69]
stdout: 0.70

stdin: Observed log10 of IC50 on Human full-length SHP2 recombinant protein (Homo sapiens (Human), UniProt Q06124) for "C#Cc1ccc2c(c1)CC1(CCN(c3nc(N)c(-c4cn(C)c5ncccc45)c4nccn34)CC1)[C@@H]2N" , please.
stdout: 1.08

stdin: What log10 of IC50 appears in the records for this molecule with Human full-length SHP2 recombinant protein (Homo sapiens (Human), UniProt Q06124)? "C#Cc1ccc2c(c1)[C@@H](N)C1(CCN(c3cc(=O)n(-c4c(F)cccc4Cl)c(C)n3)CC1)C2"
stdout: 2.11

stdin: Notebook: pull reported log10 of IC50 for Human full-length SHP2 recombinant protein (Homo sapiens (Human), UniProt Q06124), entry "NC(=O)C#Cc1ccc2c(c1)[C@@H](N)C1(CCN(c3cnc(Sc4ccnc(N)c4F)c(N)n3)CC1)C2"
stdout: -0.30
